- MEASURED TARGET: T1, human CD3 on CD3+ Jurkat cells (human, UniProt P07766 23-207)
- T1 construct: whole, on cells; Native CD3 complex on cells; the other CD3 chains are not specified for this assay; also called Human CD3+ Jurkat
- T1 sequence (P07766 23-207): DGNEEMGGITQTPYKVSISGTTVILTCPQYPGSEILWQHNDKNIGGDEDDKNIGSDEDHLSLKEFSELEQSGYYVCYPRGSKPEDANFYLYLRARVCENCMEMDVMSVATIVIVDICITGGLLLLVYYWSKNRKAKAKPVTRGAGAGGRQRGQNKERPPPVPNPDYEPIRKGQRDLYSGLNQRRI
- ASSAY DETAILS: flow cytometry, 100 nM IgG on CD3+ Jurkat cells, pH 7.4
Below, each entry is listed alongside its reported MFI pH 7.4.

BINDER	RESULT UNITS	MFI pH 7.4
SAD10318_P04_B11 (ADI-48614) (antibody, V domains shown, IgG; also called Ab217) VH: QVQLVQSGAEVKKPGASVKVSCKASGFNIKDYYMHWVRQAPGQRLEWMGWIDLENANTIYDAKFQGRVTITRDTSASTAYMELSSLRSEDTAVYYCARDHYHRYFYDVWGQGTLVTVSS VL: DIVMTQSPDSLAVSLGERATINCKSSQSLLNAHTGKNHLAWYQQKPGQPPKLLIYWASTRESGVPDRFSGSGSGTDFTLTISSLQAEDVAVYYCKQSYSRRTFGGGTKVEIK	MFI	58
SAD10318_P01_F01 (ADI-48578) (antibody, V domains shown, IgG; also called Ab204) VH: QVQLVQSGAEVKKPGASVKVSCKASGFNIKDYYMHWVRQAPGQRLEWMGWIDLENANTIYDAKFQGRVTITRDTSASTAYMELSSLRSEDTAVYYCARDAYGHYFYDHWGQGTLVTVSS VL: DIVMTQSPDSLAVSLGERATINCKSSQSLLNAHTGKNHLAWYQQKPGQPPKLLIYWASTRESGVPDRFSGSGSGTDFTLTISSLQAEDVAVYYCKQSYHHRTFGGGTKVEIK	MFI	36
SAD10319_P02_E05 (ADI-48630) (antibody, V domains shown, IgG; also called Ab4) VH: QVQLVQSGAEVKKPGASVKVSCKASGYTFDSYIMHWVRQAPGQRLEWMGWIDAGTGATVYSQKFQGRVTITRDTSASTAYMELSSLRSEDTAVYYCARDAYGHYFYDHWGQGTLVTVSS VL: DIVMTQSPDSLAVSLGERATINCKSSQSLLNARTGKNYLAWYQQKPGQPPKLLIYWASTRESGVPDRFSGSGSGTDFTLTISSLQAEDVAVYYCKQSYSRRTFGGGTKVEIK	MFI	5060
